Multi-source literature compilation: pKi on Orexin receptor type 2 (Homo sapiens).
Numbers only, as −log10 of the molar value.

Answered cases to consult:
CCCOc1ccc(C)nc1C(=O)N1CC2CN(c3cc(N(C)C)nc(C)n3)CC2C1 (stereo not shown) = 5.94
C[C@@H]1[C@H]2C[C@@H](Oc3ccc(C(F)(F)F)cn3)[C@H](C2)N1C(=O)c1cccc(F)c1-n1nccn1 (relative stereo) = 6.23
Cc1cc(OCC2COCC(C)N(C(=O)c3ccccc3-n3nccn3)C2)ccc1F (stereo not shown) = 7.96
Cc1cc(C)nc(N2CC3CN(C(=O)c4c(F)cccc4C4=CC(=O)OC4)CC3C2)n1 (stereo not shown) = 5.42

Next compound, pKi to be filled in.
Lookup result for Cc1ccc(-n2nccn2)c(C(=O)N2C[C@H](CC(=O)N3CCCc4ccccc43)CC[C@H]2C)c1 ; measured pKi: 8.16

###

Multi-source literature compilation: Ki on Orexin receptor type 2 (Homo sapiens).
Kindly apply the following: yes (1) if Ki is less than 300 nM, no (0) in every other case.

Example cases with answers are listed next.
O=C(c1cccc(F)c1-c1ncccn1)N1C[C@@H]2CC[C@H]1[C@H](Nc1cnc(C(F)(F)F)cn1)C2 = no (0)
Cc1nc(N(C)C)cc(N2CC3CN(C(=O)c4c(F)cccc4-c4ncccn4)CC3C2)n1 (stereo not shown) = yes (1)
Cc1ccc(-n2nccn2)c(C(=O)N2[C@H](C)[C@H]3C[C@@H](Oc4cnc5cc(F)ccc5n4)[C@@H]2C3)n1 (relative stereo) = yes (1)
C[C@H]1[C@H](Oc2ncc(C(F)(F)F)cc2F)CCCN1C(=O)c1cc(F)ccc1-c1ncccn1 = no (0)
C[C@H]1[C@H](Oc2ncc(C(F)(F)F)cn2)CCCN1C(=O)c1ccccc1-c1ncccn1 = no (0)

Find out if reported Ki for Cc1ccc(-n2nccn2)c(C(=O)N2CC(COc3ccc(F)c(C)c3)CCCC2C)c1 (stereo not shown) is less than 300 nM
yes (1)

Find out if reported Ki for C[C@@H]1[C@H]2C[C@@H](Oc3ccc(C(F)(F)F)cn3)[C@H](C2)N1C(=O)c1c(OCCF)ccc2cccnc12 is less than 300 nM
yes (1)

###

Multi-source literature compilation: pKi on Orexin receptor type 2 (Homo sapiens, UniProt O43614).
One number for each entry, as −log10 of the molar value.

Answered cases to consult:
Cc1ccc(-n2nccn2)c(C(=O)N2CCC[C@@H](Oc3ccc(C(F)(F)F)cn3)[C@@H]2C)n1 (racemic) = 6.33
CCOc1ccc(C)nc1C(=O)N1[C@H](C)[C@H]2C[C@@H](Oc3cnc(C(F)(F)F)cn3)[C@@H]1C2 (relative stereo) = 5.15
Cc1cccc(C(=O)N2CCC[C@@H](Oc3ncc(C(F)(F)F)cn3)[C@@H]2C)c1-c1ncc(F)cn1 = 5.55
O=C(c1ccccc1-n1nccn1)N1C(CF)C2CC(Oc3ccc(C(F)(F)F)cn3)C1C2 (racemic) = 5.70
Cc1cc(C)nc(N2CC3CN(C(=O)c4cc(F)ccc4-c4cccn4C)CC3C2)n1 (stereo not shown) = 5.00

Quick request: pKi for each listed item, please.
1. C[C@@H]1[C@H]2C[C@@H](Oc3ccc(C(F)(F)F)cn3)[C@H](C2)N1C(=O)c1ccccc1-c1cccc(Br)n1
2. C[C@@H]1[C@H]2C[C@@H](Nc3ccc(C(F)(F)F)cn3)[C@H](C2)N1C(=O)c1cccc(F)c1-n1nccn1 (relative stereo)
3. Cc1ccc(-c2ncccn2)c(C(=O)N2[C@H](C)[C@@H]3CC[C@H]2[C@H](Oc2ccc(C(F)(F)F)cn2)C3)n1
4. Cc1ccc(-n2nccn2)c(C(=O)N2[C@H](C)[C@H]3C[C@@H](Oc4cnc(C(F)(F)F)cn4)[C@@H]2C3)n1 (relative stereo)
5. Cc1cc(C)nc(N2CC3CN(C(=O)c4c(F)cccc4-c4ncccc4F)CC3C2)n1 (stereo not shown)

1: 6.08; 2: 6.74; 3: 5.57; 4: 5.37; 5: 7.62
